Target: Glucocorticoid receptor (Homo sapiens) (UniProt P04150)
Sequence (P04150 whole entry, looked up): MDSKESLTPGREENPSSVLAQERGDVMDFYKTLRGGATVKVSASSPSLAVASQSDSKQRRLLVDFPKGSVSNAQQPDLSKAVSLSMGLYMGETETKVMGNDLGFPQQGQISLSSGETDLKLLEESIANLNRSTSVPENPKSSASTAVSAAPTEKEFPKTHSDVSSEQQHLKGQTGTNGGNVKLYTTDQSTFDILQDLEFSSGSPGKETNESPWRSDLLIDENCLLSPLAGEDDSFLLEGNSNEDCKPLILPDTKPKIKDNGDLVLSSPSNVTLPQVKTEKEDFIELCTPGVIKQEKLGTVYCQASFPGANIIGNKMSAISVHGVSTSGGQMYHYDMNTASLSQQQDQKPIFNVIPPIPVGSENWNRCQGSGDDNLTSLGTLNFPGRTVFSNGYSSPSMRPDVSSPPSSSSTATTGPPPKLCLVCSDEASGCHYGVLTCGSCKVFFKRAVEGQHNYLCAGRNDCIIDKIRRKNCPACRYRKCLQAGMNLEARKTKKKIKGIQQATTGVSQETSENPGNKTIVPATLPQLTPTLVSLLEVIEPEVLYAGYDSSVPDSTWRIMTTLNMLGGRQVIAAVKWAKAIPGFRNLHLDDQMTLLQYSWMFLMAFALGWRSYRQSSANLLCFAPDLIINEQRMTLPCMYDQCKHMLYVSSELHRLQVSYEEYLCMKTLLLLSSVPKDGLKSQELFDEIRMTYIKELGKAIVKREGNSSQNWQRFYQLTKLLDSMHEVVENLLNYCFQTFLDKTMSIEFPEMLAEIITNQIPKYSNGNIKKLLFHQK
Assay: qHTS assay to identify small molecule agonists of the glucocorticoid receptor (GR) signaling pathway (AID 720691)
Settings: GR-bla HeLa, beta-lactamase reporter ratio, 18 h; series mostly up to 62.4 µM
Text: U.S. Tox21 Program National Center for Advancing Translational Sciences [NCATS] NIH Chemical Genomics Center [NCGC] U.S. Environmental Protection Agency [EPA] National Institutes of Environmental Health Sciences [NIEHS] National Toxicology Program [NTP] U.S. Food and Drug Administration [FDA] […] The activation of the reporter gene under culture conditions can be detected by fluorescence intensity. […]
Records with an inconclusive call do not appear. Calls of active or inactive are those of the source. The call rests on the fitted dose curve; in most records, active means well fitted activation curve with a large enough effect in the signal ratio in the repeat runs (not every such curve was filed as active); inconclusive means weak or mixed curves, or effect the other way; inactive means no such curve, though single readings can be large or run the other way; the % refers to the signal ratio.
Classes to choose from: active, inactive

As a guide, the following entries are already answered.
1) OCCSSCCO: inactive
2) Cc1nc(N(C)C)nc(OC(=O)N(C)C)c1C: inactive
3) O=C(CCl)CCl: inactive

Entry O=C(O)COc1cc(Cl)c(Cl)cc1Cl : call = ? inactive

Entry O=P(OCC(Br)CBr)(OCC(Br)CBr)OCC(Br)CBr (configuration not stated) : call = ? inactive

Entry COCc1cnc(C2=NC(C)(C(C)C)C(=O)N2)c(C(=O)O)c1 (configuration not stated) : call = ? inactive

Entry Cc1cnc(C2=NC(C)(C(C)C)C(=O)N2)c(C(=O)O)c1 (configuration not stated) : call = ? inactive

Entry CCCBr : call = ? inactive

Entry O=C(O)C(F)(F)C(F)(F)C(F)(F)C(F)(F)C(F)(F)C(F)(F)C(F)(F)C(F)(F)F : call = ? inactive

Entry O=C(Cc1ccccc1)c1ccccc1 : call = ? inactive

Entry COP(=O)(OC)OC(Br)C(Cl)(Cl)Br (configuration not stated) : call = ? inactive

Entry CC(C)(C)OOC(C)(C)CCC(C)(C)OOC(C)(C)C : call = ? inactive

Entry CC(C)OC(=O)Cc1ccccc1 : call = ? inactive

Entry O=C(N[C@H]1CN2CCC1CC2)c1ccc2c(c1)OCCO2 : call = ? inactive

Entry CC(C)C1(C)N=C(c2ncccc2C(=O)O)NC1=O (configuration not stated) : call = ? inactive

Entry C=CC(=O)NC(C)(C)CC(C)=O : call = ? inactive

Entry OCC1CO1 (configuration not stated) : call = ? inactive

Entry CCOP(=S)(S)OCC : call = ? inactive

Entry CCc1ccccc1N : call = ? inactive

---

target: Thyrotropin-releasing hormone receptor (Homo sapiens); experiment: qHTS assay to identify small molecule agonists of the thyrotropin-releasing hormone receptor (TRHR) signaling pathway (AID 1346891); settings: TRHR-HEK293 calcium fluorescence, agonist mode; series mostly up to 57.6 µM;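 further: HEK293 cells expressing TRHR with calcium dye readout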
Activity calls are given as the source filed them. Calls follow the shape of the full dose curve.
value type: activation

Reference set, count: 5
1) CC(CC(C(N)=O)(c1ccccc1)c1ccccc1)N(C)C (configuration not stated): inactive
2) O=C(N[C@H]1CN2CCC1CC2)c1ccc2c(c1)OCCO2: inactive
3) N#CC(C#N)=C(C#N)C#N: inactive
4) O=S(=O)(Cl)Cl: inactive
5) c1ccc2c(c1)sc1ccccc12: inactive

I looked up C=CCN1C[C@H](C)N([C@H](c2ccc(C(=O)N(CC)CC)cc2)c2cccc(OC)c2)C[C@H]1C and its activation for Thyrotropin-releasing hormone receptor (Homo sapiens) was inactive

I looked up NCCc1cc(O)c(O)cc1O and its activation for Thyrotropin-releasing hormone receptor (Homo sapiens) was inactive

I looked up CC(O)CN1CCN(CC(=O)[O-])CCN(CC(=O)[O-])CCN(CC(=O)[O-])CC1.[Gd+3] (configuration not stated) and its activation for Thyrotropin-releasing hormone receptor (Homo sapiens) was inactive
